Recorded HEK-Blue EC50 pM, NO BP (50 nM BP run) by entry
# assayed.system: T1, IL-18 receptors on HEK-Blue IL-18 reporter cells (InvivoGen) (UniProt Q13478 19-541; O95256 20-599)
# T1 sequence (looked up) 1: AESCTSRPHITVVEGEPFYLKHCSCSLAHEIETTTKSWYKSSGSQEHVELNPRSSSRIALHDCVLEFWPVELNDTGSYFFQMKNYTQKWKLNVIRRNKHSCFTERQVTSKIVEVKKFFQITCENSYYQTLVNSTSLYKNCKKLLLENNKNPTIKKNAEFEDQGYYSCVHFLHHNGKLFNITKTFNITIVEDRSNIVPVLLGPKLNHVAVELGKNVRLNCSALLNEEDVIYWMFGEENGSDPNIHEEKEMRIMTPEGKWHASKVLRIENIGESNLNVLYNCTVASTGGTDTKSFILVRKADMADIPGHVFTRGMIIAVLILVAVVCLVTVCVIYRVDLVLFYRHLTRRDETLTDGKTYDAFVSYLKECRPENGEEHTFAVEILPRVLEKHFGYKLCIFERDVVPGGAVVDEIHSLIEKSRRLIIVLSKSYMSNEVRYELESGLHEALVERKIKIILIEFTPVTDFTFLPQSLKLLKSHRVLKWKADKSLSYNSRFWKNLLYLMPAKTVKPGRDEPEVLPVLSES
# T1 sequence (looked up) 2: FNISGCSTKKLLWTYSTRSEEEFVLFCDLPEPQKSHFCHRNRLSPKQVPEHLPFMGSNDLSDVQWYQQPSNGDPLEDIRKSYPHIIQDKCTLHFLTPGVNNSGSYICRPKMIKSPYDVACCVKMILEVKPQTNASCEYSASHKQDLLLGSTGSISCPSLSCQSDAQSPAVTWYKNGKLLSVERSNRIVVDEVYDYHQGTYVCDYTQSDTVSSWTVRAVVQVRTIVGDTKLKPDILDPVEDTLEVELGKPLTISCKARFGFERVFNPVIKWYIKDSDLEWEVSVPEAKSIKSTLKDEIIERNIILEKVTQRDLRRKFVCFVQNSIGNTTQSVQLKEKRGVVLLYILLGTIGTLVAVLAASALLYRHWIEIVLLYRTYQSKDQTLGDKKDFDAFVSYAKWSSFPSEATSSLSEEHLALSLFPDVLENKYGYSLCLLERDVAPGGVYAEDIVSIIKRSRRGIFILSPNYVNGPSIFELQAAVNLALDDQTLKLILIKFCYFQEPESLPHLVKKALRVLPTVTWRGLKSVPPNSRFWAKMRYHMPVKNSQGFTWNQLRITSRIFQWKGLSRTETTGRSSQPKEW
# measurement.protocol: cell-based or functional assay
The figure you give is taken to be in pM; do not add the unit.

binder	readout.type	result.value
IL-18 variant G3T, M60K (ligand) YFTKLESKLSVIRNLNDQVLFIDQGNRPLFEDMTDSDMRDNAPRTIFIISMYKDSQPRGKAVTISVKSEKISTLSSENKIISFKEMNPPDNIKDTKSDIIFFQRSVPGHDNKMQFESSSYEGYFLASEKERDLFKLILKKEDELGDRSIMFTVQNED	HEK-Blue EC50 pM, NO BP (50 nM BP run)	0.71
IL-18 variant G3T, E6K, K53A (ligand, also called G3T, K53A, E6K) YFTKLKSKLSVIRNLNDQVLFIDQGNRPLFEDMTDSDMRDNAPRTIFIISMYADSQPRGMAVTISVKSEKISTLSSENKIISFKEMNPPDNIKDTKSDIIFFQRSVPGHDNKMQFESSSYEGYFLASEKERDLFKLILKKEDELGDRSIMFTVQNED	HEK-Blue EC50 pM, NO BP (50 nM BP run)	0.05

Quickly give me recorded HEK-Blue EC50 pM, NO BP (50 nM BP run) for IL-18 variant G3V, E6K, K53A (ligand, also called G3V, K53A, E6K) YFVKLKSKLSVIRNLNDQVLFIDQGNRPLFEDMTDSDMRDNAPRTIFIISMYADSQPRGMAVTISVKSEKISTLSSENKIISFKEMNPPDNIKDTKSDIIFFQRSVPGHDNKMQFESSSYEGYFLASEKERDLFKLILKKEDELGDRSIMFTVQNED 0.04
